SYSTEM: rat NMUR2 (rat, UniProt Q9ESQ4 1-395)
Sequence (Q9ESQ4 whole entry): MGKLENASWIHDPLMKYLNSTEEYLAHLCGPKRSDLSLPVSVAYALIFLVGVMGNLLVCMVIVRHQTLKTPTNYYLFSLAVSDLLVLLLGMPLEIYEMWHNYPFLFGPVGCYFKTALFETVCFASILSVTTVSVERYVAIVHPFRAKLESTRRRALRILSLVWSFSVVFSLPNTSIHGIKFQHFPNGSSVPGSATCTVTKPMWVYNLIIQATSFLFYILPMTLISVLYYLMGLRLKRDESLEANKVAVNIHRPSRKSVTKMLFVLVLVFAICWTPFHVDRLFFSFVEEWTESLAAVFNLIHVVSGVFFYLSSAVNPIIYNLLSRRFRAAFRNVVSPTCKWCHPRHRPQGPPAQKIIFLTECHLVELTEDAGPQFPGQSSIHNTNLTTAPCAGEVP
TEST_DESCRIPTION: cell-based or functional assay
*: point of attachment. (PEG)2 40 kDa = branched PEG of 40 kDa linked via the Cys side-chain thiol (code C2 = Cys(PEG)2 40 kDa); Succinimide(1-Et,3-yl) = CCN1C(=O)CC(*)C1=O
PARAMETER_MEASURED: % Activity (FLIPR)
Hi, when you answer, please include the unit after the number. Thanks!

Record excerpt, results attached:
// % Activity (FLIPR) lookup, binder = Ac-C(Succinimide(1-Et,3-yl))GYFLFRPRN-NH2 (SMILES CCN1C(=O)CC(SC[C@H](NC(C)=O)C(=O)NCC(=O)N[C@@H](Cc2ccc(O)cc2)C(=O)N[C@@H](Cc2ccccc2)C(=O)N[C@@H](CC(C)C)C(=O)N[C@@H](Cc2ccccc2)C(=O)N[C@@H](CCCNC(=N)N)C(=O)N2CCC[C@H]2C(=O)N[C@@H](CCCNC(=N)N)C(=O)N[C@@H](CC(N)=O)C(N)=O)C1=O) [NMU6] , result: 100%

// % Activity (FLIPR) lookup, binder = Ac-C(PEG 20 kDa)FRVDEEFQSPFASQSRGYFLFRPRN-NH2 [NMU21] , result: 99.2%

// % Activity (FLIPR) lookup, binder = Ac-C(Succinimide(1-Et,3-yl))C(Succinimide(1-Et,3-yl))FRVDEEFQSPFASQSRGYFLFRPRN-NH2 [NMU22] , result: 98.8%

Others:
// % Activity (FLIPR) lookup, binder = Ac-C((PEG)2 40 kDa)FQSPFASQSRGYFLFRPRN-NH2 [NMU20] , result: 100%
